SYSTEM: T1, biotinylated Peptide A4 (AGR2-binding peptide aptamer, HLPTTIYYGPPG) (also: biotinylated, end not given here)
T1 construct: also called TTIYY-containing peptide; source: synthetic peptide (Chiron Mimotopes)
T1 peptide: HLPTTIYYGPPG
EXPERIMENTAL DETAILS: ELISA; biotinylated peptide A4 (5 μg/well) captured on streptavidin-coated microtitre plate; wt or mutant AGR2 titrated in 3% BSA in PBS-T, 1 h room temperature; detected with AGR2 antibody K47, RLU
MEASUREMENT PARAMETERS: both partners purified
No end group written: not given here.
MEASURED PROPERTY: binding result

His-AGR2 S134A (plasmid pmAGR2S134A) (natural protein, human, Ser at 69 as in m1; also called mutant AGR2^S134A; source: E. coli BL21-AI, purified (Ni-NTA agarose; gel filtration buffer exchange for HDX)) RDTTVKPGAKKDTKDSRPKLPQTLSRGWGDQLIWTQTYEEALYKSKTSSKPLMIIHHLDECPHSQALKKVFAENKEIQKLAEQFVLLNLVYETTDKHLSPDGQYVPRIMFVDPALTVRADITGRYSNRLYAYEPADTALLLDNMKKALKLLKTEL :: binds
His-AGR2 D132A (plasmid pmAGR2D132A) (natural protein, human, human AGR2 residues 21-175; source: E. coli BL21-AI, purified (Ni-NTA agarose); not shown: His6 (leader as in m1), N-terminal, kept) RDTTVKPGAKKDTKDSRPKLPQTLSRGWGDQLIWTQTYEEALYKSKTSSKPLMIIHHLDECPHSQALKKVFAENKEIQKLAEQFVLLNLVYETTDKHLSPDGQYVPRIMFVAPSLTVRADITGRYSNRLYAYEPADTALLLDNMKKALKLLKTEL :: binds
His-AGR2 WT (mature AGR2, amino acids 21-175, N-terminal 6xHis tag; plasmid pmAGR2) (natural protein, human, human AGR2, mature form without the ER leader, residues 21-175; also called wt-AGR2; wild-type AGR2; source: E. coli BL21-AI, purified (Ni-NTA agarose; gel filtration buffer exchange for HDX)) RDTTVKPGAKKDTKDSRPKLPQTLSRGWGDQLIWTQTYEEALYKSKTSSKPLMIIHHLDECPHSQALKKVFAENKEIQKLAEQFVLLNLVYETTDKHLSPDGQYVPRIMFVDPSLTVRADITGRYSNRLYAYEPADTALLLDNMKKALKLLKTEL :: binds
His-AGR2 P133A (plasmid pmAGR2P133A) (natural protein, human, human AGR2 residues 21-175; source: E. coli BL21-AI, purified (Ni-NTA agarose); not shown: His6 (leader as in m1), N-terminal, kept) RDTTVKPGAKKDTKDSRPKLPQTLSRGWGDQLIWTQTYEEALYKSKTSSKPLMIIHHLDECPHSQALKKVFAENKEIQKLAEQFVLLNLVYETTDKHLSPDGQYVPRIMFVDASLTVRADITGRYSNRLYAYEPADTALLLDNMKKALKLLKTEL :: binds
